SYSTEM: mTOR (Homo sapiens, UniProt P42345)
Construct: FLAG; made in house
Sequence (P42345 1362-2549): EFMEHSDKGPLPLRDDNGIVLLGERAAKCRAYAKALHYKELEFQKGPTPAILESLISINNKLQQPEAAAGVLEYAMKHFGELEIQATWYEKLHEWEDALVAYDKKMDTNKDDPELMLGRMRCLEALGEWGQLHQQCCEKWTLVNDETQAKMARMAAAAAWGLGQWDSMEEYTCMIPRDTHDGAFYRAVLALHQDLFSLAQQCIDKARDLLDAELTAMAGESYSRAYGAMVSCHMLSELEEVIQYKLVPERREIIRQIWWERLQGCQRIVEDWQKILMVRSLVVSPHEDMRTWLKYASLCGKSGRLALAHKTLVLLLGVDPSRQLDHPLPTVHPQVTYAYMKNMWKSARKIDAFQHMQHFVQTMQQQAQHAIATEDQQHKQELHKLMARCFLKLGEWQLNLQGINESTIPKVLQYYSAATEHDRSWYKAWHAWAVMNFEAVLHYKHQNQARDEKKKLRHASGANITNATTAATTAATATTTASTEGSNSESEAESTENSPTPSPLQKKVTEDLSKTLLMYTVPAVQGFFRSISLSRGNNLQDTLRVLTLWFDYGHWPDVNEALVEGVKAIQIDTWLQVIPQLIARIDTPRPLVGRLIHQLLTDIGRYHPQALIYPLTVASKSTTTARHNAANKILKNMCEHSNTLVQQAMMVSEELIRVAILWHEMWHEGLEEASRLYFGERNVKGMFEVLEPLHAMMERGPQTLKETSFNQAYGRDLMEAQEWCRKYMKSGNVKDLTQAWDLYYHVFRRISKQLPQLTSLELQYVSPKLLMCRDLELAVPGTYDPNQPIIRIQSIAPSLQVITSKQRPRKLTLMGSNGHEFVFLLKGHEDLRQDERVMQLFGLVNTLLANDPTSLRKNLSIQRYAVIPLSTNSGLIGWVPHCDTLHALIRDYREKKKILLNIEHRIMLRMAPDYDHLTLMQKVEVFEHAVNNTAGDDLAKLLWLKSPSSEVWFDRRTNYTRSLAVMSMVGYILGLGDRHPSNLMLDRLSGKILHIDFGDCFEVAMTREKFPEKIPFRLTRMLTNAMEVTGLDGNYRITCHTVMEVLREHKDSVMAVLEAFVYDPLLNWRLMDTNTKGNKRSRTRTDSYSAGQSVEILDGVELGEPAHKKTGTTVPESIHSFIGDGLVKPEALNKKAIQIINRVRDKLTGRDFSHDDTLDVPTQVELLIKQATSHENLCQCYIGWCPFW
TEST METHOD NOTES: In Vitro mTOR Kinase Assay (Echo), Test (a)(ii)
Format: biochemical
APPLIED CONDITIONS: table of enzyme assay Test (a)(ii); read-out: Test (a)(ii) IC50
PARAMETER MEASURED: IC50 (nM)

CCNC(=O)Nc1ccc(-c2nc(N3CCOC[C@@H]3CC)cc(C3(S(C)(=O)=O)CC3)n2)cc1 [Example 84e]; 8.18
CNC(=O)Nc1ccc(-c2nc(N3CCOC[C@@H]3C)cc(C3(S(=O)(=O)c4cc(F)ccc4F)CC3)n2)cc1; 12
Cc1ccccc1S(=O)(=O)C1(c2cc(N3CCOC[C@@H]3C)nc(-c3ccc(NC(=O)NC4CC4)cc3)n2)CC1 [Example 54a]; 9.18
C[C@H]1COCCN1c1cc(C2(S(=O)(=O)C3CC3)CC2)nc(-c2ccc(NC(=O)Nc3cnn(C)c3)nc2)n1 [Example 14d]; 14.3

(a) C[C@H]1COCCN1c1cc(C2(S(=O)(=O)C3CC3)CCCC2)nc(-c2ccc(NC(=O)NCCO)cc2)n1 [Example 36k]
(b) CCS(=O)(=O)C1(c2cc(N3CCOC[C@@H]3C)nc(-c3ccc(NC(=O)N[C@H](C)CO)cc3)n2)CCC1 [Example 87f]
Sorting by IC50 in descending order, would a or b appear first? To answer, give the label that identifies your chosen option. a

Hey, just so you know, these numbers are from patent US20090018134A1.
